biological target: TSLP, Q969D9; assay: Kd (SPR)
Listed next: entries and their corresponding pKd.
Worth noting: pKd values are minus log10 of concentrations stated in mol/L.

>>> measurement("unnamed (protein) chain 1: QMQLVESGGGVVQPGRSLRLSCAASGFTFSTFAMHWVRQAPGKGLEWVAVIWYDGSNKHYADSVKGRFTITRDNSKNTLNLQMNSLRAEDTAVYYCARAPRYDEYLEAFDVWGQGTMVTVSS chain 2: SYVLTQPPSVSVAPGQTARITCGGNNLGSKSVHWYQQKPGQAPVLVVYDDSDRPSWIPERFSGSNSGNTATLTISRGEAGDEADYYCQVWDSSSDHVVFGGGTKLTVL")
6.52

What the record says about unnamed (protein) chain 1: QMQLVESGGGVVQPGRSLRLSCAASGFTFSTYAMHWVRQAPGKGLEWVAVIWYDGSNKHYADSVKGRFTITRDNSKNTLNLQMNSLRAEDTAVYYCARSPRYDEYYEAFDVWGQGTMVTVSS chain 2: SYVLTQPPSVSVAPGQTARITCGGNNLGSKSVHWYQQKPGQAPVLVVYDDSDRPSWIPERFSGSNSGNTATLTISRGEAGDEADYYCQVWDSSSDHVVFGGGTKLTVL : pKd is 6.66
